Data origin, for the record: ChEMBL document CHEMBL1201862

Listed below: GI50 values for each entry.
- Test system: HT-29
- TEST_DETAILS: NCI tumour cell line growth inhibition, 48 h
Active and inactive are the calls of the source. No stated cut-off is given here; in the data, active = GI50 up to about 1.1 µM and inactive = higher.

* CCc1oc2ccc(OC)c3c2c1C=CC=C3 | 77.3 µM (inactive)

Continue with the next compound.
IN: // query GI50 value for entry Cn1/c(=N\S(=O)(=O)c2ccccc2)n(S(=O)(=O)c2ccccc2)c2ccccc21
OUT: 35.6 µM (inactive)

---

- Test system: SF-295
- TEST_DETAILS: NCI tumour cell line growth inhibition, 48 h
The source made the active and inactive calls. Cut-off read from the data, not from the text of the source: active = GI50 up to about 1.1 µM and inactive = higher.
Listed below: GI50 values for each entry.

- COc1cccc(NC(=O)CC(=O)N2N=C(C)C(/N=N/c3ccc(S(=O)(=O)CCOS(=O)(=O)O)cc3)C2=O)c1 (configuration not stated): 15.3 µM (inactive)
- CC1(C)S[C@@H]2[C@H](N3C(=O)c4ccccc4C3=O)CN2[C@H]1NC(=O)N[C@@H]1N2C[C@@H](N3C(=O)c4ccccc4C3=O)[C@H]2SC1(C)C: 75.7 µM (inactive)
- Cc1cc(C2CCCCC2)n(O)c(=O)c1: 3.81 µM (inactive)

IN: // query GI50 value for entry COC1(CC[C@@H](C)COC2OC(CO)C(O)C(O)C2O)OC2C[C@H]3[C@@H]4CC[C@H]5C[C@@H](OC6OC(CO)C(OC7OC(CO)C(O)C(O)C7O)C(O)C6OC6OC(C)C(O)C(O)C6O)[C@H](O)C[C@]5(C)[C@H]4CC[C@]3(C)C2[C@@H]1C (some centres not stated)
OUT: 1.8 µM (inactive)

IN: Next up: O=S(=O)(c1ccccc1)C(CN1CCCCC1)S(=O)(=O)c1ccccc1
OUT: > 100 µM (inactive)

IN: Next up: CC(=O)NNc1nc(C)c(C(/C=C/c2ccccc2O)=N/NC(=O)c2ccncc2)s1
OUT: > 100 µM (inactive)

IN: Next up: C#CC(O)/C=C/C(O)CCCC(O)CC#CC(O)C#CCCCCC(O)/C=C/CCCC(=O)CCCCCCCCCCCCCCCC(O)C(O)C#CC(=O)O (configuration not stated)
OUT: > 25 µM (inactive)

IN: Next up: CCCCC(C(=O)C(=O)NC1C2CC3CC(C2)CC1C3)C(=O)C(C)C (configuration not stated)
OUT: > 100 µM (inactive)

IN: Next up: CCOc1ccc(/N=N/c2ccc(-c3ccc(/N=N/c4c(O)ccc5cc(S(=O)(=O)O)cc(S(=O)(=O)O)c45)cc3)cc2)cc1
OUT: > 100 µM (inactive)

IN: Next up: CC1(C)CC(=O)C(=CNC(N)=S)C(=O)C1
OUT: > 100 µM (inactive)

IN: Next up: COc1cc(Br)cc2nc(-c3cccs3)oc12
OUT: 55.7 µM (inactive)

IN: Next up: COc1ccccc1[S+]([O-])Nc1ccccc1 (configuration not stated)
OUT: > 100 µM (inactive)

IN: Next up: CC(C)(C)OC(=O)NCCCCC1NC(=O)[C@@H]2Cc3c([nH]c4ccccc34)C(c3ccccc3)N2C1=O (some centres not stated)
OUT: 22 µM (inactive)
